molecular target: Human PD-L1/PD-1 (Homo sapiens); construct: made in house; host or cells: HEK293T; assay: HTRF PD-1-Ig/PD-L1-His binding assay (human PD-L1); details: cluster symbol; read-out: HTRF IC50 cluster
Sequence (Q9NZQ7 with tags, fused parts or gaps): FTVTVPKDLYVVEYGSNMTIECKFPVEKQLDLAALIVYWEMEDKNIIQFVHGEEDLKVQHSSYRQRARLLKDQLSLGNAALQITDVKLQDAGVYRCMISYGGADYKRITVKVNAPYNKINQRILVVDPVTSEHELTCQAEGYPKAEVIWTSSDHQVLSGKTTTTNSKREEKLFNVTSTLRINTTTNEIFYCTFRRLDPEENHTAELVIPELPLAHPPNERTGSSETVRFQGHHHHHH
pIC50: −log10 of the molar value. Positions of bridges follow the written chain, without caps; N, C: chain ends. Non-standard residues stand in square brackets, D forms with d. Residues, ends and D or L forms follow the SMILES beside them. ξ: configuration not given here. Phe(3-Me) = Cc1cccc(C[C@H](N)C(=O)O)c1; Bta = N[C@@H](Cc1csc2ccccc12)C(=O)O; Hyp = O=C(O)[C@@H]1C[C@@H](O)CN1; NMeF = CN[C@@H](Cc1ccccc1)C(=O)O; NMeNle = CCCC[C@H](NC)C(=O)O; NMeA = CN[C@@H](C)C(=O)O; Dap = NC[C@H](N)C(=O)O; ξP = O=C(O)C1CCCN1; Sar = CNCC(=O)O
Record form. Attribute: pIC50. Fill in for each entry.

Known pIC50 results, listed for orientation:
1) CCCC[C@H]1C(=O)N2CCC[C@@H]2C(=O)N[C@@H](CCC(=O)O)C(=O)N[C@@H](C(C)C)C(=O)N(C)[C@@H](Cc2ccccc2)C(=O)N[C@@H](CN)C(=O)N2CCC[C@@H]2C(=O)N[C@@H](Cc2c[nH]c3ccccc23)C(=O)N[C@@H](Cc2ccc(O)cc2)C(=O)N[C@@H](CC(C)C)C(=O)N[C@H](C(=O)NCC(N)=O)CSCC(=O)N[C@@H](Cc2ccccc2)C(=O)N(C)[C@@H](Cc2ccccc2)C(=O)N1C [Example 3191] ({CH2CO}-F[NMeF][NMeNle][dP]EV[NMeF][Dap][dP]WYLCG-NH2; thioether N-13)	8.17 to 9.41
2) CCCC[C@H]1C(=O)N(C)[C@@H](CCCC)C(=O)N[C@@H](CC(=O)O)C(=O)N[C@H](C(=O)NCC(N)=O)CSCC(=O)N[C@@H](Cc2ccc(O)cc2)C(=O)N(C)[C@@H](C)C(=O)N[C@@H](CC(=O)O)C(=O)N2CCC[C@H]2C(=O)N[C@@H](Cc2c[nH]cn2)C(=O)N[C@@H](CCCNC(=N)N)C(=O)N2CCCC2C(=O)N[C@@H](Cc2c[nH]c3ccccc23)C(=O)N[C@@H](CCCNC(=N)N)C(=O)N[C@@H](Cc2c[nH]c3ccccc23)C(=O)N1C (stereo partly shown) [Example 1201] ({CH2CO}-Y[NMeA]DPHR[ξP]WRW[NMeNle][NMeNle]DCG-NH2; thioether N-14)	7.52 to 8.17
3) CCCC[C@H]1C(=O)N(C)[C@@H](CCCC)C(=O)N[C@@H](CN)C(=O)N[C@H](C(=O)NCC(N)=O)CSCC(=O)N[C@@H](Cc2ccc(O)cc2)C(=O)N(C)[C@@H](C)C(=O)N[C@@H](CC(N)=O)C(=O)N2CCC[C@H]2C(=O)N[C@@H](CN)C(=O)N[C@@H](CC(C)C)C(=O)N2C[C@H](O)C[C@H]2C(=O)N[C@@H](Cc2c[nH]c3ccccc23)C(=O)N[C@@H](CO)C(=O)N[C@@H](Cc2csc3ccccc23)C(=O)N1C [Example 1161] ({CH2CO}-Y[NMeA]NP[Dap]L[Hyp]WS[Bta][NMeNle][NMeNle][Dap]CG-NH2; thioether N-14)	8.17 to 9.41

# next compound below
# input Test system Human PD-L1/PD-1 (Homo sapiens); read-out pIC50; what value for CCCC[C@H]1C(=O)N(C)CC(=O)N[C@@H](CC(=O)O)C(=O)N[C@@H](C(C)C)C(=O)N[C@@H](Cc2cccc(C)c2)C(=O)N[C@@H](Cc2ccc(O)cc2)C(=O)N(C)CC(=O)N[C@@H](Cc2c[nH]c3ccccc23)C(=O)N[C@@H](Cc2ccc(O)cc2)C(=O)N[C@@H](CC(C)C)C(=O)N[C@H](C(=O)NCC(N)=O)CSCC(=O)N[C@@H](Cc2ccccc2)C(=O)N(C)[C@@H](Cc2ccccc2)C(=O)N1C [Example 3134] ({CH2CO}-F[NMeF][NMeNle][Sar]DV[Phe(3-Me)]Y[Sar]WYLCG-NH2; thioether N-13) ?
# output < 7.52
